test system: IGROV1 ovarian; assay: NCI tumour cell line growth inhibition, 48 h
Reported property: TGI

Guide cases for TGI, answers given:
Compound: CN1C(=O)c2ccccc2NC(=O)c2cnn(C)c21
Reported property: TGI
Result: > 100 µM
--
Compound: CC1(c2ccc(F)cc2)CC(c2ccc(F)cc2)=C(C#N)C(=C(C#N)C#N)N1 (centres undefined)
Reported property: TGI
Result: 32.3 µM
--
Compound: O=C1CCCCC/C1=C\c1ccc(F)cc1
Reported property: TGI
Result: > 100 µM
--
Compound: CC[C@@H](C(=O)[C@@H](C)[C@@H](O)[C@H](C)[C@@H]1O[C@@H]([C@@H](CC)C(=O)O)CC[C@@H]1C)C1O[C@]2(C=CC(=O)[C@]3(CC[C@@](C)([C@H]4CC[C@](O)(CC)[C@H](C)O4)O3)O2)[C@H](C)C[C@@H]1C (some centres undefined)
Reported property: TGI
Result: 20.4 µM
--
Compound: CCOC(=O)/C(=C\c1ccc(O)c(OC)c1)C(=O)c1ccccc1
Reported property: TGI
Result: 39 µM
--
Compound: CCOC(=O)c1c(N)nn2c1cc1cccccc12
Reported property: TGI
Result: 94.8 µM
--
Compound: C=C1C(=O)O[C@@H]2C[C@@]3(C)CCC[C@H](C)C3=C[C@H]12
Reported property: TGI
Result: 29.6 µM
--
Compound: COC(=O)CCCN(C)c1n[nH]c(N)n1
Reported property: TGI
Result: > 100 µM
--
Compound: CCN1CCC(O)(c2ccc(C)cc2)C(C(=O)c2ccc(C)cc2)C1 (centres undefined)
Reported property: TGI
Result: > 58.9 µM
--
Compound: C/C=C/c1c(O)c(=O)c2c(OC)cc(OC)c3c4c(OC)cc(OC)c5c(=O)c(O)c(/C=C/C)c(c1c23)c54
Reported property: TGI
Result: 19.2 µM

Give the value of TGI reported for the following: COc1ccccc1OCC(=O)Nc1sc2c(c1C(N)=O)CCC2 > 100 µM

Give the value of TGI reported for the following: COC(=O)C1=C2CCC(=O)[C@@]2(C)C(OC(C)=O)C=CC1 (some centres undefined) > 100 µM

Give the value of TGI reported for the following: Cc1nc(C)c(C(=O)NNC(=O)Cc2ccccc2)cc1C(=O)NNC(=O)Cc1ccccc1 > 100 µM

Give the value of TGI reported for the following: COc1c(C)c(C/C=C(\C)CCCCO[Si](C(C)C)(C(C)C)C(C)C)c(OC)c2ccccc12 > 100 µM

Give the value of TGI reported for the following: COc1cc(/C=C2\C[C@H]3[C@@H]4CC=C5C[C@@H](O)CC[C@]5(C)[C@H]4CC[C@]3(C)[C@H]2O)cc(OC)c1OC > 100 µM

Give the value of TGI reported for the following: O=c1c2cccc(Cl)c2sc2c(NCCCNCCO)nc3ccccc3c12 6.86 µM

Give the value of TGI reported for the following: COCc1nc2c(OC)cc(-c3nc4nc(N5CCN(C)CC5)ccc4[nH]3)c(OC)c2[nH]1 > 100 µM

Give the value of TGI reported for the following: COCO[C@@H]1C[C@H]2C(O)Nc3ccccc3C(=O)N2C1 (some centres undefined) > 100 µM

Give the value of TGI reported for the following: C=C(C)C1CC=C(C)[C@](O)(C2(O)C[C@H](C(=C)C)CC=C2C)C1 (some centres undefined) > 100 µM
